Attribute: GI50
- Test system: UACC-62
- assay: NCI tumour cell line growth inhibition, 48 h
Activity calls are given as the source filed them. Rule as the data show it: active = GI50 up to about 1.1 µM and inactive = higher.

Known results for compounds:
Q: For the compound COc1ccc(C=C(c2ccc(OCc3ccccc3)cc2)c2ccc(OCc3ccccc3)cc2)cc1 , give its measured GI50 value.
Ans: > 100 µM (inactive)

Q: Consider the compound Cc1nc2c(=S)[nH]ncc2[nH]1 and give its recorded GI50.
Ans: > 100 µM (inactive)

Q: Give the reported GI50 for this compound. CC(C)(C)NC(=O)/C(=C\Sc1ccccc1)c1ccc2c(c1)OCO2
Ans: 19.8 µM (inactive)

Q: Look up and report measured GI50 for this entry: CSCSCC(CO)NC(=O)/C(C)=C\c1c(C)[nH]c(=O)[nH]c1=O (stereo unspecified)
Ans: > 250 µM (inactive)

Q: Return GI50 for the following compound: O=C(O)CCSc1ncnc2[nH]cnc12
Ans: > 100 µM (inactive)

Q: # return recorded GI50 for entry CCSC1=C(C)N(/C=N/C(C)(C)C)CC1
Ans: > 100 µM (inactive)

Q: Return the recorded GI50 value; entry: c1ccc(Nc2nnc(-c3nsc4ccccc34)o2)cc1
Ans: > 100 µM (inactive)

Q: # return recorded GI50 for entry NC(CC1=CS(=O)(=O)c2ccc(Cl)cc21)C(=O)O (stereo unspecified)
Ans: > 100 µM (inactive)

***
Q: Output measured GI50 for this item: C#CCOC(=O)C(N)CCSC (stereo unspecified)
Ans: > 100 µM (inactive)

Reference source for all entries: ChEMBL document CHEMBL1201862
